- TGT: human Y5 receptor (Homo sapiens)
- Construct: expressed in transfected cells; host or cells: mouse fibroblast LM(tk-) cells, e.g. L-hY5-7 (ATCC CRL-11995)
- Sequence (Q15761 whole entry): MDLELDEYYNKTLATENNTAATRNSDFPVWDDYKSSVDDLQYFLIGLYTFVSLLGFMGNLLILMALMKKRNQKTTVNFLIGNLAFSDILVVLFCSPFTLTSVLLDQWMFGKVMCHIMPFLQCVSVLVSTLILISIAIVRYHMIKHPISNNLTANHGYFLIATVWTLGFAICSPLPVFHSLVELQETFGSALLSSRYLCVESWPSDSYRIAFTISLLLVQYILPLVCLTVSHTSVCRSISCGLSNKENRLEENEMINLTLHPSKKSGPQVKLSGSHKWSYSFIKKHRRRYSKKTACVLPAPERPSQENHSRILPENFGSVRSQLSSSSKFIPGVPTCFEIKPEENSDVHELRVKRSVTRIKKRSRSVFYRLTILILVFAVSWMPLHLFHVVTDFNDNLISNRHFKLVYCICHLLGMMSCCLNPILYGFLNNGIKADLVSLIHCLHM
- ASSAY_PROCEDURE: Radioligand binding to membranes, cloned human Y5 receptor
- CONDITION_SET: Table 6; read-out: Ki, nM hNPY-5
ATTRIBUTE_MEASURED: log10 of Ki (log10 of the value in nM)
All values: log10 Ki [nM].

INSERT INTO measurements (compound, attribute_measured, value) VALUES
  ('COc1ccc(C)cc1S(=O)(=O)NCCCCCCNc1nc2c(s1)CCSc1ccccc1-2 [Example 113]', 'log10 of Ki', 0.73),
  ('O=S(=O)(Cc1ccccc1)NCCCCCCNc1nc2c(s1)CCSc1ccccc1-2 [Example 148]', 'log10 of Ki', 1.02),
  ('COc1ccc(C)cc1S(=O)(=O)NC[C@H]1CC[C@H](Nc2nc3c(s2)CCSc2ccccc2-3)CC1 [Example 119]', 'log10 of Ki', 1.15),
  ('CCS(=O)(=O)NCCCCCNc1nc2c(s1)CCSc1ccccc1-2 [Example 109]', 'log10 of Ki', 0.57),
  ('Cc1cccc(F)c1S(=O)(=O)NC[C@H]1CC[C@H](Nc2nc3c(s2)CCSc2ccccc2-3)CC1 [Example 158]', 'log10 of Ki', 0.91);

// each listed compound needs a value for log10 of Ki
1. COc1ccc(C)cc1S(=O)(=O)NCCCCCNc1nc2c(s1)CCSc1ccc(F)cc1-2 [Example 160]
2. O=S(=O)(Cc1ccccc1)NCCCCCNc1nc2c(s1)CCSc1ccccc1-2 [Example 133]
3. CS(=O)(=O)NCCCCCNc1nc2c(s1)CCSc1ccc(F)cc1-2 [Example 159]

a:
0.45
1.58
0.79

Values compiled from patent US7189720B2.
